target entity: Gsx2HD (Mus musculus, UniProt P31316 203-264)
Sequence (P31316 203-264): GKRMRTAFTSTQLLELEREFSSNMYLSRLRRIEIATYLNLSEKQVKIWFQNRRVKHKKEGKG
method notes: ITC; K 2.8 ± 1.4 x10^7 M-1; N 0.98; ITC: 50 mM sodium phosphate pH 6.5, 150 mM NaCl, 20 C; EMSA: 35 nM probe, 15 min room temperature, buffer as in cited ref 31
setup conditions: protein: recombinant; tags: N-terminal His-tag, cleaved with PreScission; chain copies: 2; 5' overhang 1 nt on each strand
reported endpoint: Kd (nM)
Could you give me the number in nM? Just the number is fine.

Kd measured on TAATGG 15-mer (Common Q50 site) (dsDNA) DNA 1: TGAGCTAATGGAAGC DNA 2: AGCTTCCATTAGCTC = 36
